molecular target: human orexin type 2 receptor (hOX2R) (Homo sapiens (Human)); test: Measurement of orexin type 2 receptor agonist activity (Experimental Example 2-1, FLIPR TETRA, intracellular Ca2+); format: cell-based; settings: CHO dhfr- cells expressing hOX2R; agonist activity, 10 nM human orexin B = 100%
Sequence (O43614 whole entry): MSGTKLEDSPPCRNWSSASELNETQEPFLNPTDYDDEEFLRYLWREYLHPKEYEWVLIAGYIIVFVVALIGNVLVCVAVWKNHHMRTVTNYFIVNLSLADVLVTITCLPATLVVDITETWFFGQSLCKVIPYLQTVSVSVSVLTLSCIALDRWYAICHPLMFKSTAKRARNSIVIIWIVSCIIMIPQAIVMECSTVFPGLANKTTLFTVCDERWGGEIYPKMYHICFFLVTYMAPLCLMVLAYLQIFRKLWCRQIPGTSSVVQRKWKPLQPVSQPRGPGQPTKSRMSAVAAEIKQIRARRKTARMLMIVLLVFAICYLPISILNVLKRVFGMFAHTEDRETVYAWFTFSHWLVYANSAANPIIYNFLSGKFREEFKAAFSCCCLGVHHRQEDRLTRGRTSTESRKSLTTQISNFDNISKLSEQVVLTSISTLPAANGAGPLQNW
Parameter: pEC50
The meaning of pEC50 here: minus log10 of the concentration in molar units.

Query: Need pEC50 of CC(=O)N1CCC[C@H](NS(C)(=O)=O)[C@@H]1CO[C@H]1CC[C@@H](C(C)C)CC1 [Example 70] , thanks.
Reply: 7.01

Query: Name the recorded pEC50 for CCNC(=O)N1CCC[C@H](NS(C)(=O)=O)[C@@H]1CO[C@H]1CC[C@@H](C(F)(F)F)CC1 (relative stereo) [Example 107] .
Reply: 6.92

Query: # pEC50 lookup, item CC(=O)N1CCC[C@H](NS(=O)(=O)N(C)C)[C@@H]1CO[C@H]1CC[C@@H](c2ccccc2)CC1 (relative stereo) [Example 111]
Reply: 7.89

Query: Please report the recorded pEC50 for [2H]C1C([2H])[C@]([2H])(C(C)C)C([2H])C([2H])[C@]1([2H])OC[C@H]1[C@@H](NS(C)(=O)=O)CCCN1C(=O)NCC (some centres unmarked) [Example 104] .
Reply: 8.66

Query: Please look up its pEC50: CC(=O)N1CCC[C@H](NS(=O)(=O)C(F)(F)F)[C@@H]1CO[C@H]1CC[C@@H](C(C)C)CC1 (relative stereo) [Example 80]
Reply: 6.18

Query: Fill in: pEC50 of CS(=O)(=O)N[C@H]1CCCN[C@H]1CO[C@H]1CC[C@@H](c2cccc(F)c2F)CC1 [Example 18] is ___
Reply: 6.28

Query: I am curious: what pEC50 value has been reported for CCNC(=O)N1CCC[C@H](NS(C)(=O)=O)[C@@H]1CO[C@H]1C[C@@H](c2ccccc2)C1 (relative stereo) [Example 113] ?
Reply: 7.23

Query: Recorded pEC50 of CC(C)[C@H]1CC[C@@H](OC[C@H]2[C@@H](NS(C)(=O)=O)CCCN2C(=O)C2CCOCC2)CC1 (relative stereo) [Example 60] , please.
Reply: 6.85

Query: // returns reported pEC50 for input COCCNC(=O)N1CCC[C@H](NS(C)(=O)=O)[C@@H]1CO[C@H]1CC[C@@H](C(C)C)CC1 (relative stereo) [Example 96]
Reply: 7.59

Query: # lookup: pEC50 of COc1ccccc1[C@H]1CC[C@@H](OC[C@H]2[C@@H](NS(C)(=O)=O)CCCN2C(=O)C2CC2)CC1 [Example 28]
Reply: 8.57

Query: Any idea what its pEC50 is? The compound is CNC(=O)N1CCC[C@H](NS(C)(=O)=O)[C@@H]1CO[C@H]1CC[C@@H](C(C)C)CC1 [Example 102]
Reply: 8.92

Query: // query pEC50 value for entry CS(=O)(=O)N[C@H]1CCCN[C@H]1CO[C@H]1CC[C@@H](c2c(F)cccc2F)CC1 [Example 13]
Reply: 6.89

Query: Item CS(=O)(=O)N[C@H]1CCCN(C(=O)CO)[C@H]1CO[C@H]1CC[C@@H](c2cccc(F)c2F)CC1 [Example 25] has what recorded pEC50?
Reply: 8.10

Query: # pEC50 lookup, item CC(C)[C@H]1CC[C@@H](OC[C@H]2[C@@H](NS(C)(=O)=O)CCCN2C(=O)CC(C)(C)O)CC1 (relative stereo) [Example 73]
Reply: 6.25

Query: Quick one: pEC50 for CC(C)[C@H]1CC[C@@H](OC[C@H]2[C@@H](NS(C)(=O)=O)CCCN2C(=O)NCCO)CC1 (relative stereo) [Example 97] ?
Reply: 8.35

Query: # pEC50 lookup, item COc1ccccc1[C@H]1CC[C@@H](OC[C@@H]2NCCC[C@@H]2NS(C)(=O)=O)CC1 [Example 27]
Reply: 6.51

Query: Requested field: pEC50. Item: COCC(=O)N1CCC[C@H](NS(C)(=O)=O)[C@@H]1CO[C@H]1CC[C@@H](c2ccccc2)CC1 (relative stereo) [Example 119]
Reply: 7.52

Query: So what does the record say about pEC50 for CC(=O)N1CCC[C@H](NS(=O)(=O)C(C)C)[C@@H]1CO[C@H]1CC[C@@H](C(C)C)CC1 (relative stereo) [Example 76] ?
Reply: 6.52

Query: Quick one: pEC50 for CC(C)[C@H]1CC[C@@H](OC[C@H]2[C@@H](NS(C)(=O)=O)CCCN2C(=O)COc2ccn(C)n2)CC1 [Example 84] ?
Reply: 6.08

Query: Looking for the measured pEC50 of CC(=O)N1CCC[C@H](NS(C)(=O)=O)[C@@H]1CO[C@H]1CC[C@@H](C(C)(C)F)CC1 (relative stereo) [Example 95] , can you help?
Reply: 5.37

Query: Item under review: CS(=O)(=O)N[C@H]1CCCN[C@H]1CO[C@H]1CC[C@@H](c2c(F)ccc(F)c2F)CC1 [Example 21] . Reported pEC50?
Reply: 6.70

Query: Tell me the measured pEC50 of CCNC(=O)N1CCC[C@H](NS(C)(=O)=O)[C@@H]1CO[C@H]1CC[C@@H](c2ccccc2F)CC1 (relative stereo) [Example 117] , please.
Reply: 9.92

Query: Bench note: what pEC50 did CC(C)[C@H]1CC[C@@H](OC[C@H]2[C@@H](NS(C)(=O)=O)CCCN2C(=O)N2CCCC2)CC1 (relative stereo) [Example 39] show?
Reply: 6.03

Query: For CCS(=O)(=O)N[C@H]1CCCN(C(C)=O)[C@H]1CO[C@H]1CC[C@@H](C(C)C)CC1 [Example 33] , what is its reported pEC50?
Reply: 7.17

Query: Field request: pEC50 | item: [2H]C1C([2H])[C@]([2H])(C(C)C)C([2H])C([2H])[C@]1([2H])OC[C@H]1[C@@H](NS(C)(=O)=O)CCCN1C(C)=O (some centres unmarked) [Example 103]
Reply: 6.77

Query: Endpoint output: pEC50 of CC(C)[C@H]1CC[C@@H](OC[C@H]2[C@@H](NS(C)(=O)=O)CCCN2C(=O)CCS(C)(=O)=O)CC1 (relative stereo) [Example 74] . Value?
Reply: 6.12
